assay: Octanol-water partition coefficients; type: physicochemical; details: errors show SEM; Gd in each layer by ICP-MS
Reported Water-Octanol LogP values are given for each entry in this list.
Write the value as a bare number.

{"columns": ["molecule", "Water-Octanol LogP"],
 "data": [
  ["C[N+](C)(C)CCCc1cn(CC(O)CN2CCN(CC(=O)[O-])CCN(CC(=O)[O-])CCN(CC(=O)[O-])CC2)nn1.[Gd+3] (stereo not shown)", "−4.33"],
  ["CCCCc1cn(CC(O)CN2CCN(CC(=O)[O-])CCN(CC(=O)[O-])CCN(CC(=O)[O-])CC2)nn1.[Gd+3] (stereo not shown)", "−2.18"]
]}

Data request, read-out Water-Octanol LogP, for "O=C([O-])CN1CCN(CC(=O)[O-])CCN(CC(=O)[O-])CCN(CC(=O)[O-])CC1.[Gd+3]"
−3.62

Data request, read-out Water-Octanol LogP, for O=C([O-])CN1CCN(CC(=O)[O-])CCN(CC(O)Cn2cc(CCCOP(=O)(O)O)nn2)CCN(CC(=O)[O-])CC1.[Gd+3] (stereo not shown)
−4.05

Data request, read-out Water-Octanol LogP, for O=C([O-])CN1CCN(CC(=O)[O-])CCN(CC(O)Cn2cc(CCCC(=O)O)nn2)CCN(CC(=O)[O-])CC1.[Gd+3] (stereo not shown)
−3.44

Data request, read-out Water-Octanol LogP, for CC(O)CN1CCN(CC(=O)[O-])CCN(CC(=O)[O-])CCN(CC(=O)[O-])CC1.[Gd+3] (stereo not shown)
−3.59

Data request, read-out Water-Octanol LogP, for "NCCCCCCCCCCCCN1CCN(CC(=O)[O-])CCN(CC(=O)[O-])CCN(CC(=O)[O-])CC1.[Gd+3]"
−1.63

Hello, the source for this data is patent US10994016B2, in case you need it.
